FYI, the data here is from ChEMBL document CHEMBL5038680.

target: Programmed cell death protein 1/Programmed cell death 1 ligand 1 (Homo sapiens, UniProt Q15116+Q9NZQ7); assay: Inhibition of PD-1/PDL-1 (unknown origin) interaction incubated for 15 mins by TR-FRET assay
Sequence (Q15116 whole entry): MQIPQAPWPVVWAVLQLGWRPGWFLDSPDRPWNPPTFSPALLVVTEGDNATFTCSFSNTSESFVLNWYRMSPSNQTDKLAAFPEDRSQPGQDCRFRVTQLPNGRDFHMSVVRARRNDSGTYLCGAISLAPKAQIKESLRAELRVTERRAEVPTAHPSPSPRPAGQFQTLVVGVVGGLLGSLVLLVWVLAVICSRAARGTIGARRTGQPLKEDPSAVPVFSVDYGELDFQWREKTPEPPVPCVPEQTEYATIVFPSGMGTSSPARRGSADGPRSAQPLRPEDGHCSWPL
Sequence (Q9NZQ7 whole entry): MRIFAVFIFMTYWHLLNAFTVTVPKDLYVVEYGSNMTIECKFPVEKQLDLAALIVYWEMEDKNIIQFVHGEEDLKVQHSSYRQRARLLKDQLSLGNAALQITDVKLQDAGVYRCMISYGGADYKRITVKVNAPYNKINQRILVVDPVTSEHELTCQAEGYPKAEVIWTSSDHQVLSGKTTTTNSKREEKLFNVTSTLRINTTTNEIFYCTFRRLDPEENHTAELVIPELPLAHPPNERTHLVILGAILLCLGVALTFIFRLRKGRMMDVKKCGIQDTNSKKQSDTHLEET
Overview of recorded IC50 for various compounds
readout type: IC50

smiles structure: CC(=O)NCCNCc1ccc(NC(=O)c2cccc(-c3ccc(F)cc3)c2Cl)nc1
measured result: > 1000 nM
--
smiles structure: CC(=O)NCCNCc1ccnc(NC(=O)c2cccc(-c3ccccc3)c2Cl)c1
measured result: 894 nM
--
smiles structure: COCCNCc1ccc(NC(=O)c2cccc(-c3ccccc3)c2Cl)nc1
measured result: 797 nM
--
smiles structure: CC(=O)NCCNCc1ccc(NC(=O)c2cccc(-c3ccncc3)c2Cl)nc1
measured result: > 1000 nM
--
smiles structure: COc1cccc(-c2cccc(C(=O)Nc3ccc(CNCCNC(C)=O)cn3)c2Cl)c1
measured result: > 1000 nM
--
smiles structure: O=C(Nc1ccc(CNC[C@@H](O)CO)cn1)c1cccc(-c2ccccc2)c1Cl
measured result: 442 nM
--
smiles structure: COc1nc(NC(=O)c2cccc(-c3ccccc3)c2Cl)ccc1CNCCN(C)C
measured result: > 1000 nM
--
smiles structure: CC(=O)NCCNCc1ccc(NC(=O)c2cccc(-c3ccccc3)c2Cl)cc1
measured result: > 1000 nM
--
smiles structure: CC(=O)NCCNCc1cccc(NC(=O)c2cccc(-c3ccccc3)c2Cl)n1
measured result: > 1000 nM
--
smiles structure: CC(=O)NCCNCc1ccc(NC(=O)c2cccc(-c3ccccc3)c2Cl)nc1C(F)(F)F
measured result: > 1000 nM
--
smiles structure: COc1ccc(-c2cccc(C(=O)Nc3ccc(CNCCNC(C)=O)cn3)c2Cl)cc1
measured result: > 1000 nM
--
smiles structure: CC(=O)NCCNCc1ccc(NC(=O)c2cccc(-c3ccc(S(C)(=O)=O)cc3)c2Cl)nc1
measured result: > 1000 nM
--
smiles structure: O=C(Nc1ccc(CN2CC[C@H](C(=O)O)C2)cn1)c1cccc(-c2ccc3c(c2)OCCO3)c1Br
measured result: 46.5 nM
--
smiles structure: COCCOc1cccc(-c2cccc(C(=O)Nc3ccc(CNCCNC(C)=O)cn3)c2Cl)c1
measured result: > 1000 nM
--
smiles structure: CC(=O)NCCNCc1ccc(NC(=O)c2cccc(-c3ccc4c(c3)OCCO4)c2Cl)nc1
measured result: 284 nM
--
smiles structure: O=C(Nc1ccc(CN2CC[C@H](C(=O)O)C2)cn1)c1cccc(-c2ccc3c(c2)OCCO3)c1F
measured result: > 1000 nM
--
smiles structure: COC(=O)C1CN(Cc2ccc(NC(=O)c3cccc(-c4ccccc4)c3Cl)nc2)C1
measured result: > 1000 nM
--
smiles structure: O=C(Nc1ccc(CNCCO)cn1)c1cccc(-c2ccccc2)c1Cl
measured result: 502 nM
--
smiles structure: CC(=O)NCCNCc1ccc(NC(=O)c2cccc(-c3ccccc3)c2Cl)nc1F
measured result: 581 nM
